meta.source: patent US9120812B2

- experimental.system: PI3Kα (p110α/p85α) (Homo sapiens (Human), UniProt P42336)
- Sequence (P42336 whole entry): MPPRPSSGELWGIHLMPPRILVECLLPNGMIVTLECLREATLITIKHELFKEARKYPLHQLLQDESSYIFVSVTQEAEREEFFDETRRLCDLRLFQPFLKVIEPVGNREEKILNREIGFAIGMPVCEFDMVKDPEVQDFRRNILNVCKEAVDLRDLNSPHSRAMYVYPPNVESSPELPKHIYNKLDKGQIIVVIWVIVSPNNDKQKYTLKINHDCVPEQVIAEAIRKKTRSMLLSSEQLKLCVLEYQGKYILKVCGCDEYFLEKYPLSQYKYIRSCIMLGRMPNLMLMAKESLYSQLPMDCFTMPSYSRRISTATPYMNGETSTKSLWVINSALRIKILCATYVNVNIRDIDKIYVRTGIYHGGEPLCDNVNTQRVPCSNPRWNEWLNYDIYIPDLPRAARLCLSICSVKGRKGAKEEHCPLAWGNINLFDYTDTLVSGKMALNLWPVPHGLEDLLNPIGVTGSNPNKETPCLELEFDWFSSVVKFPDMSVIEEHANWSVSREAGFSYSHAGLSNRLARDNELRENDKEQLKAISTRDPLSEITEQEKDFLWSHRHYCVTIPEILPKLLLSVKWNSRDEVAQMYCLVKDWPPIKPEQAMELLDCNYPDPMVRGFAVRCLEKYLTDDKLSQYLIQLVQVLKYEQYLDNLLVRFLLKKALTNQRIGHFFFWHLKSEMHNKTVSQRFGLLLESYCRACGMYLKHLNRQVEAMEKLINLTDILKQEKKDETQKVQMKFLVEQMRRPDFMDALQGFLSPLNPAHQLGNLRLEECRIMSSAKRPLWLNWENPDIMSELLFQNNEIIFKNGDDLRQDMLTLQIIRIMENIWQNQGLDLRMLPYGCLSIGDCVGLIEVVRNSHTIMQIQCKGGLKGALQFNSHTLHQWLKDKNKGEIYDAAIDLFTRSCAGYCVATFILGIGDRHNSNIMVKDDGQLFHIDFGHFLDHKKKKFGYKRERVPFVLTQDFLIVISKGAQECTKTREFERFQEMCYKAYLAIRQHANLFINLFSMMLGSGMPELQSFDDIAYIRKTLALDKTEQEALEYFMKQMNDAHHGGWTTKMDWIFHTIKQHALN
- Sequence (P27986 whole entry partner): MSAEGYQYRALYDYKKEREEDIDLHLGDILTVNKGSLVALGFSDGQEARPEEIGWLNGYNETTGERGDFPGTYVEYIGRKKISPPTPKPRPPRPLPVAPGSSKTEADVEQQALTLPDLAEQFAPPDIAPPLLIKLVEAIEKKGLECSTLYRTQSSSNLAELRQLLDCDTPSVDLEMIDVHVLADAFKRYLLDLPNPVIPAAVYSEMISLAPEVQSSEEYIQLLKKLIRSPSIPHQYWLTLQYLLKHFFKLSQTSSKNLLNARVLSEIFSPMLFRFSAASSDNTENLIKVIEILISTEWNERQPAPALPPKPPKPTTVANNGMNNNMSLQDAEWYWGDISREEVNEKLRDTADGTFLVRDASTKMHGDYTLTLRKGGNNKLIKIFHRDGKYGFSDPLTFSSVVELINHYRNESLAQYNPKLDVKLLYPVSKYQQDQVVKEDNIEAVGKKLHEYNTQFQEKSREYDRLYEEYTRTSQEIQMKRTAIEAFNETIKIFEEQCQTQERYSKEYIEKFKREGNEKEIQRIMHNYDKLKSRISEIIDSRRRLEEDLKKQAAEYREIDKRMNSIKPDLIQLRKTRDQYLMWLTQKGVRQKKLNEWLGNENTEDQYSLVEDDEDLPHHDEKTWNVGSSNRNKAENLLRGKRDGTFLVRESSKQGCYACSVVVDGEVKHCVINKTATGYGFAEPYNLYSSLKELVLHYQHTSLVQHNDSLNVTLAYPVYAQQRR
- experiment: PI3Kα enzymatic test by measuring the consumption of ATP
- Assay type: biochemical
Each record here notes measured PI3Ka IC50.
readout.kind: PI3Ka IC50

compound_structure=CCNC(=O)Nc1ccc(-c2nc(N3CCOC[C@@H]3C)nc3c2C(=O)N(CC)CC(C)(C)O3)cc1F readout_kind="PI3Ka IC50" endpoint_value="2.11 µM"
compound_structure=COCCN1CC(C)(C)Oc2nc(N3CC4CCC(C3)O4)nc(-c3ccc(NC(=O)Nc4ccon4)cc3)c2C1=O readout_kind="PI3Ka IC50" endpoint_value="<10 µM"
compound_structure=CCN1CC(C)(C)Oc2nc(N3CC4CCC(C3)O4)nc(-c3ccc(NC(=O)Nc4ccc(N5CCCC5)cn4)cc3)c2C1=O readout_kind="PI3Ka IC50" endpoint_value=">10 µM"
compound_structure=COCCN1CC(C)(C)Oc2nc(N3CC4CCC(C3)O4)nc(-c3ccc(NC(=O)Nc4ccc(OC)nc4)cc3)c2C1=O readout_kind="PI3Ka IC50" endpoint_value=">10 µM"
compound_structure=CCN1CC(C)(C)Oc2nc(N3CC4CCC(C3)O4)nc(-c3ccc(NC(=O)Nc4cccc(OC)n4)c(F)c3)c2C1=O readout_kind="PI3Ka IC50" endpoint_value=">10 µM"
compound_structure=CCN1CC(C)(C)Oc2nc(N3CC4CCC(C3)O4)nc(-c3ccc(NC(=O)Nc4ccc(OC)nn4)c(F)c3)c2C1=O readout_kind="PI3Ka IC50" endpoint_value=">10 µM"
compound_structure=CCN1CC(C)(C)Oc2nc(N3CCOC[C@@H]3C)nc(-c3ccc(NC(=O)Nc4cnc(C)cn4)c(F)c3)c2C1=O readout_kind="PI3Ka IC50" endpoint_value="3.52 µM"

====

- experimental.system: mTOR (human recombinant aa mTOR 1360-2549) (Homo sapiens (Human), UniProt P42345)
- Sequence (P42345 1360-2549): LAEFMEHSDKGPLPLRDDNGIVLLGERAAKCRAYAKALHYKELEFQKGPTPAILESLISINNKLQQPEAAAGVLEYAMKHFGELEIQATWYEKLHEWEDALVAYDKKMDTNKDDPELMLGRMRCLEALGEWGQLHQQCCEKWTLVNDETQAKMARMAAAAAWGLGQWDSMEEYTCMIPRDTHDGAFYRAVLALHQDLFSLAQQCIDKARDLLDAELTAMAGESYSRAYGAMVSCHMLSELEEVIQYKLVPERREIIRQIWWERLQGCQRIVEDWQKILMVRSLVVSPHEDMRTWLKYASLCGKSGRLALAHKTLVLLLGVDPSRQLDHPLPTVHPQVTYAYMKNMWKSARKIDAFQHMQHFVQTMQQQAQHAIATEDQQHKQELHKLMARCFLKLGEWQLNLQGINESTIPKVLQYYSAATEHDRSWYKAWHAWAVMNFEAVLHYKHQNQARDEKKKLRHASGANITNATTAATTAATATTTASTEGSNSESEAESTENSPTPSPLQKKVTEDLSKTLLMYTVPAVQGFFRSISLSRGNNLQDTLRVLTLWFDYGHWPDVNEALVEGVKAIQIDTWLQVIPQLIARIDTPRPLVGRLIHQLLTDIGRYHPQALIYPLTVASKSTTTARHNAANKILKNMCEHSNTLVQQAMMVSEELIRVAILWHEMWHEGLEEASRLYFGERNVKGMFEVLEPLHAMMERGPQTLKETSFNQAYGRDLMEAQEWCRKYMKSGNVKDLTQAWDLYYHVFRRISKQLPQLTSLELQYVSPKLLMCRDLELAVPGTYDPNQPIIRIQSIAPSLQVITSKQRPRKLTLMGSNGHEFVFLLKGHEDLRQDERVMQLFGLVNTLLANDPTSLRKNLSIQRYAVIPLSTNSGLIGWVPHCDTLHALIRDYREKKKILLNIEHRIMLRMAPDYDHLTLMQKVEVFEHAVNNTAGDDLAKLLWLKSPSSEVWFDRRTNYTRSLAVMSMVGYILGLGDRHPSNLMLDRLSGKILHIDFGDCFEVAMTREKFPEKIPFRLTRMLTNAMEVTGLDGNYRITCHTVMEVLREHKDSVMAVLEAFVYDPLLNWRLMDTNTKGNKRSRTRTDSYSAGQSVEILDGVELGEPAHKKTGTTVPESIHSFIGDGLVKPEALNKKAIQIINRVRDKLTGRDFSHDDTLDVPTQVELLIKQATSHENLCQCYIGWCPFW
- experiment: mTOR enzymatic test by TR-FRET (phosphorylation of GFP-4EBP1)
pIC50: −log10 of the molar value.
Tick 1 if pIC50 is 7 or greater. Tick 0 if pIC50 is less than 7.

molecule="CCN1CC(C)(C)Oc2nc(N3CCOC[C@@H]3C)nc(-c3ccc(NC(=O)Nc4ccc(C)cn4)cc3)c2C1=O [Example 168]" class_assignment=1
molecule=CCN1CC(C)(C)Oc2nc(N3CCOC[C@@H]3C)nc(-c3ccc(NC(=O)Nc4cc(C)nc(C)n4)cc3)c2C1=O class_assignment=1
molecule=CCNC(=O)Nc1ccc(-c2nc(N3CC4CCC(C3)O4)nc3c2CN(CC)CC(C)(C)O3)cc1 class_assignment=0
molecule=CCN1CC(C)(C)Oc2nc(N3CCOC[C@@H]3C)nc(-c3ccc(NC(=O)Nc4ccncc4)c(F)c3)c2C1=O class_assignment=1
molecule=CCN1CC(C)(C)Oc2nc(N3CC4CCC(C3)O4)nc(-c3ccc(NC(=O)Nc4cnc(OC)cn4)cc3)c2C1=O class_assignment=1
molecule=Cc1ccc(NC(=O)Nc2ccc(-c3nc(N4C5CCC4COC5)nc4c3C(=O)N(C)CC(C)(C)O4)cc2)nc1 class_assignment=1
molecule=CCN1CC(C)(C)Oc2nc(N3CC4CCC(C3)O4)nc(-c3ccc(NC(=O)Nc4cc(C)nc(C)c4)c(F)c3)c2C1=O class_assignment=1
molecule=CCN1CC(C)(C)Oc2nc(N3CC4CCC(C3)O4)nc(-c3ccc(NC(=O)Nc4ccnc5[nH]ccc45)c(F)c3)c2C1=O class_assignment=0
molecule=CN1CC(C)(C)Oc2nc(N3C4CCC3COC4)nc(-c3ccc(NC(=O)Nc4ccncc4)cc3)c2C1=O class_assignment=1
molecule=CCN1CC(C)(C)Oc2nc(N3CC4CCC(C3)O4)nc(-c3ccc(NC(=O)Nc4ccc(N5CCOC[C@@H]5C)nc4)c(F)c3)c2C1=O class_assignment=1
molecule="CCN1CC(C)(C)Oc2nc(N3CC4CCC(C3)O4)nc(-c3ccc(NC(=O)NCC4CCCO4)c(F)c3)c2C1=O (stereo not drawn)" class_assignment=0
molecule=CCNC(=O)Nc1ccc(-c2nc(N3CC4CCC(C3)O4)nc3c2C(=O)N(CCC(=O)OC(C)(C)C)CC(C)(C)O3)cc1 class_assignment=0
molecule=CCNC(=O)Nc1ccc(-c2nc(N3CC4CCC(C3)O4)nc3c2C(=O)N(CC)CC(C)(C)O3)cn1 class_assignment=0
molecule=CCN1CC(C)(C)Oc2nc(N3CC4CCC(C3)O4)nc(-c3ccc(NC(=O)Nc4ccc(C(=O)NCC(C)(C)O)cc4)cc3)c2C1=O class_assignment=1
molecule=CCN1CC(C)(C)Oc2nc(N3CCOCC3)nc(-c3ccc(OC)c(CO)c3)c2C1=O class_assignment=0
molecule=CCN1CC(C)(C)Oc2nc(N3CCOC[C@@H]3C)nc(-c3ccc(NC(=O)Nc4ccon4)c(F)c3)c2C1=O class_assignment=1
molecule=Cc1ccc(NC(=O)Nc2ccc(-c3nc(N4CC5CCC(C4)O5)nc4c3C(=O)N(C)CC(C)(C)O4)cc2)nc1 class_assignment=1
molecule=CCN1CC(C)(C)Oc2nc(N3CC4CCC(C3)O4)nc(-c3ccc(NC(=O)O[C@H](C)CO)c(F)c3)c2C1=O class_assignment=0

====

- experimental.system: PI3Kα (p110α/p85α) (Homo sapiens (Human), UniProt P42336)
- experiment: PI3Kα enzymatic test by measuring the consumption of ATP
- Format: biochemical
PI3Ka IC50 less than 1 µM is fulfilled; PI3Ka IC50 greater than or equal to 1 µM is not fulfilled.

compound_structure=CCN1CC(C)(C)Oc2nc(N3CCOC[C@@H]3C)nc(-c3ccc(NC(=O)NC)c(F)c3)c2C1=O class_assignment=fulfilled
compound_structure=CCN1CC(C)(C)Oc2nc(N3CC4CCC(C3)O4)nc(-c3ccc(NC(=O)Nc4ccc(C(=O)N(C)CCN(C)C)cc4)cc3)c2C1=O class_assignment=fulfilled
compound_structure=CCN1CC(C)(C)Oc2nc(N3CCOC[C@@H]3C)nc(-c3ccc(NC(=O)O[C@H]4CCC[C@H]4O)cc3)c2C1=O class_assignment="not fulfilled"
compound_structure=CCN1CC(C)(C)Oc2nc(N3CC4CCC(C3)O4)nc(-c3ccc(NC(=O)Nc4cnn(C)c4)cc3)c2C1=O class_assignment="not fulfilled"
compound_structure=CCN1CC(C)(C)Oc2nc(N3CC4CCC(C3)O4)nc(-c3ccc(NC(=O)Nc4ccnc(N(C)C)c4)c(F)c3)c2C1=O class_assignment="not fulfilled"
compound_structure=CN1CC(C)(C)Oc2nc(N3CC4CCC(C3)O4)nc(-c3ccc(NC(=O)Nc4ccncc4)cc3)c2C1=O class_assignment=fulfilled
compound_structure=CCN1CC(C)(C)Oc2nc(N3CCOC[C@@H]3C)nc(-c3ccc(NC(=O)Nc4ccc(OC)nc4)c(C)c3)c2C1=O class_assignment="not fulfilled"
compound_structure=CCN1CC(C)(C)Oc2nc(N3CCOCC3)nc(-c3ccc(NC(=O)NOC)cc3)c2C1=O class_assignment="not fulfilled"
compound_structure=COCCN1CC(C)(C)Oc2nc(N3CCOC[C@@H]3C)nc(-c3ccc(NC(=O)Nc4ccc(F)cc4F)cc3)c2C1=O class_assignment="not fulfilled"
compound_structure=CCN1CC(C)(C)Oc2nc(N3CC4CCC(C3)O4)nc(-c3ccc(Nc4nnc(C)s4)cc3)c2C1=O class_assignment="not fulfilled"
compound_structure=CNC(=O)Nc1ccc(-c2nc(N3CC4CCC(C3)O4)nc3c2C(=O)N(CCOC)CC(C)(C)O3)cc1F class_assignment="not fulfilled"
compound_structure=CCN1CC(C)(C)Oc2nc(N3CC4CCC(C3)O4)nc(-c3ccc(NC(=O)OC)cc3)c2C1=O class_assignment="not fulfilled"
compound_structure=CCN1CC(C)(C)Oc2nc(N3CC4CCC(C3)O4)nc(-c3ccc(NC(=O)Nc4ccc(N5CCN(C)CC5)cc4)c(F)c3)c2C1=O class_assignment="not fulfilled"
compound_structure=CCNC(=O)Nc1ccc(-c2nc(N3CCOCC3)nc3c2C(=O)N(CC)CC(C)(C)O3)cc1 class_assignment="not fulfilled"

====

- experimental.system: mTOR (human recombinant aa mTOR 1360-2549) (Homo sapiens (Human), UniProt P42345)
- experiment: mTOR enzymatic test by TR-FRET (phosphorylation of GFP-4EBP1)
pIC50: −log10 of the molar value.
Outcome: satisfied for pIC50 of at least 7; not satisfied for anything lower.

compound_structure=CCC(=O)Nc1ccc(-c2nc(N3CC4CCC(C3)O4)nc3c2C(=O)N(CC)CC(C)(C)O3)cc1 class_assignment="not satisfied"
compound_structure=CN1CC(C)(C)Oc2nc(N3CC4CCC(C3)O4)nc(-c3ccc(NC(=O)Nc4ccccn4)cc3)c2C1=O class_assignment=satisfied
compound_structure=COCCN1CC(C)(C)Oc2nc(N3CC4CCC(C3)O4)nc(-c3ccc(NC(=O)Nc4cccc(OC(F)F)c4)c(F)c3)c2C1=O class_assignment="not satisfied"
compound_structure=CCNC(=O)Nc1ccc(-c2nc(N3CC4CCC(C3)O4)nc3c2C(=O)N(CC)CC(C)(C)O3)cc1F class_assignment=satisfied
compound_structure=CCN1CC(C)(C)Oc2nc(N3CC4CCC(C3)O4)nc(-c3ccc(NC(=O)Nc4ccncc4)c(F)c3)c2C1=O class_assignment=satisfied
compound_structure=CCN1CC(C)(C)Oc2nc(N3CC4CCC(C3)O4)nc(-c3ccc(NC(=O)Nc4ccccn4)cc3F)c2C1=O class_assignment=satisfied
